Outcome measure: log10(intrinsic clearance, human liver microsomes) (log10 of the value in mL/min/kg)

[
  {
    "Structure smiles": "Cc1cc(Nc2nc(N[C@@H](C)c3ncc(F)cn3)ncc2Cl)n[nH]1",
    "Reported": 0.93
  },
  {
    "Structure smiles": "Cc1csc(N(C(=O)c2cc3c(C)nn(C)c3s2)C2CC2)n1",
    "Reported": 2.08
  },
  {
    "Structure smiles": "Cc1ccc(-c2nc(CC(=O)NCCC(C)C)cs2)cc1",
    "Reported": 2.67
  },
  {
    "Structure smiles": "COc1cccc(O[C@H]2CCN(C(=O)c3cc(-c4ccc(C)cc4)on3)CC[C@@H]2O)c1",
    "Reported": 1.92
  },
  {
    "Structure smiles": "COc1c(C)cccc1CN1CCC(O)(c2ccc(F)cc2)CC1",
    "Reported": 1.44
  },
  {
    "Structure smiles": "Clc1snnc1CN1CCCN(c2nc3ccccc3[nH]2)CC1",
    "Reported": 2.02
  },
  {
    "Structure smiles": "O=c1[nH]c2ccccc2n1C1CCN(Cc2nc(-c3ccsc3)no2)CC1",
    "Reported": 1.21
  },
  {
    "Structure smiles": "CCOc1ccc2nc3c(cc2c1)CN(CCOC)C(=O)O3",
    "Reported": 1.08
  }
]

====

Would you mind labelling by intrinsic clearance, human liver microsomes? At or over 30 mL/min/kg is YES, under is NO.

[
  {
    "Structure smiles": "CCC(=O)NCc1cc(C2CC2)n(C2CCCC2)n1",
    "Discrete label": "NO"
  },
  {
    "Structure smiles": "CCCNC(=O)c1ccc(OC2CCN(C)CC2)cc1",
    "Discrete label": "NO"
  },
  {
    "Structure smiles": "CC(C)Oc1ccc(C#N)cc1NC1CCN(C)CC1",
    "Discrete label": "NO"
  },
  {
    "Structure smiles": "O=C(Cc1ccc2ccccc2c1)NCCc1nc2ccccc2[nH]1",
    "Discrete label": "YES"
  },
  {
    "Structure smiles": "COCC(=O)Nc1ccc(NC(=O)Cc2cc(C)ccc2C)cc1",
    "Discrete label": "YES"
  },
  {
    "Structure smiles": "O=C(c1ccc(F)c(F)c1)N1CCN(C(=O)c2nc(Cl)ccc2Cl)CC1",
    "Discrete label": "NO"
  },
  {
    "Structure smiles": "Cc1cc(C(=O)NCC2CCN(c3ccc4ccccc4n3)CC2)cnc1C",
    "Discrete label": "YES"
  },
  {
    "Structure smiles": "CSC1(CNc2cncc(Cl)n2)CCOCC1",
    "Discrete label": "NO"
  },
  {
    "Structure smiles": "Cc1ccc2nc(CN(C)Cc3cccc(Cl)c3Cl)cc(=O)n2c1",
    "Discrete label": "YES"
  },
  {
    "Structure smiles": "CC(C)(C)n1ncc(C(=O)N2CCCn3ncnc32)c1C(F)(F)F",
    "Discrete label": "NO"
  },
  {
    "Structure smiles": "N#CCN(C(=O)c1cn(-c2ccc(Br)cc2)cn1)C1CC1",
    "Discrete label": "NO"
  },
  {
    "Structure smiles": "CC(C)(C)NC(=O)c1cncn1C1CCN(c2ccc(-c3nnc(C(F)(F)F)o3)cn2)CC1",
    "Discrete label": "NO"
  },
  {
    "Structure smiles": "CC(C)c1ccc(-c2cc3c(=O)n(CCC(=O)NCCN(C)C)ccn3n2)cc1",
    "Discrete label": "YES"
  },
  {
    "Structure smiles": "CCn1c(-c2nonc2N)nc2cnc(Oc3cccc(NC(=O)c4ccc(OCCN5CCOCC5)cc4)c3)cc21",
    "Discrete label": "YES"
  },
  {
    "Structure smiles": "Cc1ccc(NS(C)(=O)=O)c(C(=O)N(C)c2ccc3ccccc3c2)c1",
    "Discrete label": "NO"
  },
  {
    "Structure smiles": "COc1ccccc1-c1cc(C(C)(C)C)nc(-c2ncccn2)n1",
    "Discrete label": "NO"
  },
  {
    "Structure smiles": "CC(C)c1ccc(CN2CCN(C(=O)C3CCN(C(=O)C4CC4)CC3)CC2)cc1",
    "Discrete label": "YES"
  },
  {
    "Structure smiles": "Cc1ccccc1CCNC(=O)N(Cc1cccnc1)C1CCN(C)CC1",
    "Discrete label": "NO"
  },
  {
    "Structure smiles": "CC1(C)CC(=O)c2c(C(F)(F)F)nn(-c3ccc(C(N)=O)c(N[C@H]4CC[C@@H](O)CC4)c3)c2C1",
    "Discrete label": "YES"
  },
  {
    "Structure smiles": "COc1cccc(CN2Cc3ccccc3OC3(CCOCC3)C2)c1",
    "Discrete label": "YES"
  },
  {
    "Structure smiles": "COc1cccc(CN(C)c2ncnc3c2CN(C)CC3)c1",
    "Discrete label": "NO"
  },
  {
    "Structure smiles": "CN(CCc1ccccc1)C(=O)CC#N",
    "Discrete label": "NO"
  },
  {
    "Structure smiles": "Cc1csc(NC(=O)c2ccc(-c3ccncc3)cc2)n1",
    "Discrete label": "YES"
  },
  {
    "Structure smiles": "CCCc1cc(CNS(=O)(=O)c2cc(-c3cnc(C)o3)ccc2C)on1",
    "Discrete label": "YES"
  },
  {
    "Structure smiles": "COc1ccc(C2(NCc3ccc(N4CCCC4=O)cc3)CC2)cc1",
    "Discrete label": "NO"
  },
  {
    "Structure smiles": "Cc1cccn(Cc2cccc(C#N)c2)c1=O",
    "Discrete label": "NO"
  },
  {
    "Structure smiles": "CCC(=O)N1CCN(c2ccc(Cl)cc2NC(=O)COc2ccccc2)CC1",
    "Discrete label": "YES"
  },
  {
    "Structure smiles": "N#Cc1cccc(CN2CCC=C(CNC(=O)c3cccs3)C2)c1",
    "Discrete label": "YES"
  },
  {
    "Structure smiles": "CCc1ccc(NC(=O)C2CCN(c3ccc4nncn4n3)CC2)cc1",
    "Discrete label": "NO"
  },
  {
    "Structure smiles": "COCCc1noc(CN(C)C(=O)c2ccc3c(c2)CCC3)n1",
    "Discrete label": "NO"
  },
  {
    "Structure smiles": "Cc1cc(Oc2cnccn2)ccc1N",
    "Discrete label": "NO"
  },
  {
    "Structure smiles": "Cc1nc(C)c(C)c(NCc2cc(-c3ccc(F)cc3)no2)n1",
    "Discrete label": "NO"
  },
  {
    "Structure smiles": "Cn1ccc(C(=O)NCCc2cc3nc(-c4ccncc4)ccn3n2)n1",
    "Discrete label": "NO"
  },
  {
    "Structure smiles": "CC1(C)CN(C(=O)c2cncc(Br)c2)CCO1",
    "Discrete label": "NO"
  },
  {
    "Structure smiles": "Cc1cc(C(=O)Nc2cccc(-c3cnco3)c2)c2c(C)nn(C)c2n1",
    "Discrete label": "NO"
  },
  {
    "Structure smiles": "CCN(C(=O)CO)[C@H]1CN(/C(=N\\C#N)Nc2cccc(OC(F)F)c2)N=C1c1ccc(Cl)c(Cl)c1",
    "Discrete label": "YES"
  },
  {
    "Structure smiles": "CCCc1nc(N2CCc3ccccc3C2)ncc1C(=O)O",
    "Discrete label": "NO"
  },
  {
    "Structure smiles": "CCc1nnc(NC(=O)c2ccc3cc(OC)ccc3n2)s1",
    "Discrete label": "YES"
  },
  {
    "Structure smiles": "CN(CC1CCCC1)C(=O)Nc1ccccc1N1CCOC1=O",
    "Discrete label": "YES"
  },
  {
    "Structure smiles": "Cc1ccccc1-c1cc(N)n(Cc2ccccc2)n1",
    "Discrete label": "YES"
  },
  {
    "Structure smiles": "CC(C)c1cc(CN(C)Cc2c[nH]nc2-c2ccc(F)cc2)no1",
    "Discrete label": "YES"
  },
  {
    "Structure smiles": "Cc1csc(N(C(=O)c2ccc(-n3cncn3)c(F)c2)C2CC2)n1",
    "Discrete label": "NO"
  },
  {
    "Structure smiles": "Cc1nc(CNC2CCN(C(=O)C3CC3)CC2)cs1",
    "Discrete label": "NO"
  },
  {
    "Structure smiles": "O=C(Cc1n[nH]c2ccccc12)N1CCCO1",
    "Discrete label": "NO"
  },
  {
    "Structure smiles": "CCOC(=O)c1cccnc1-c1ccc2[nH]ccc2c1",
    "Discrete label": "YES"
  },
  {
    "Structure smiles": "O=C(NCc1ncc(-c2ccccc2)o1)C1CCCCC1",
    "Discrete label": "YES"
  },
  {
    "Structure smiles": "Cc1ccnc(C2CCN(C3CCCC3)CC2)n1",
    "Discrete label": "NO"
  }
]
